Measured Inhibition of ligand binding, Dop. D2L values are reported for all entries that follow.
system under test: human recombinant dopamine D2L receptor (Homo sapiens)
Construct: expressed in transfected cells; host or cells: CHO cells
Sequence (P14416 whole entry): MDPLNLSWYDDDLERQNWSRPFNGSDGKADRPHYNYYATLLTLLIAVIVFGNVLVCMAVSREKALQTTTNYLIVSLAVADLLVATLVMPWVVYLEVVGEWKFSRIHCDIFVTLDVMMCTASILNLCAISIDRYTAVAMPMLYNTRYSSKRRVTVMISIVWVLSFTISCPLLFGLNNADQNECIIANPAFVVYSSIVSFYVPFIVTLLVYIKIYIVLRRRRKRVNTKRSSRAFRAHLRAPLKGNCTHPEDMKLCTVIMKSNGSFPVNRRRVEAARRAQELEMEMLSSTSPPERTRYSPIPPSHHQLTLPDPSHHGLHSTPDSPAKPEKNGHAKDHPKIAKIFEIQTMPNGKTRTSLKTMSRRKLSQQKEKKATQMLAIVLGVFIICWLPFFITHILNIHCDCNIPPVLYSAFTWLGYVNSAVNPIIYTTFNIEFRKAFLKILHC
protocol description: Dopamine D2L radioligand binding ([3H]Spiperone); further: test concentration or dose not given here
experimental context: percent inhibition of specific binding
A complete answer gives the number followed by the unit.

Example compounds with recorded Inhibition of ligand binding, Dop. D2L:
compound	result
CN1CCc2c(c3cc(Cl)ccc3n2CC(=O)N2CCNCC2)C1 [Compound 244]	6%
CN1CCc2c(c3cc(Cl)ccc3n2CC(=O)N2CCCCC2)C1 [Compound 236]	1%
Cc1ccc2c(c1)c1c(n2CCc2ccc(C(F)(F)F)nc2)CCN(C)C1 [Compound 68]	29%

Inhibition of ligand binding, Dop. D2L reported for this compound CCc1ccc2c(c1)c1c(n2CCc2ccc(C)nc2)CCN(C)C1 [Compound 357] : 47%

Reported Inhibition of ligand binding, Dop. D2L ( CN1CCc2c(c3cc(Cl)ccc3n2CCn2cccc2)C1 [Compound 349] ) = 86%

Lab note: measured Inhibition of ligand binding, Dop. D2L of Cc1cnc(CCn2c3c(c4cc(C(C)C)ccc42)CN(C)CC3)cn1 [Compound 369] was 1%

Form field Inhibition of ligand binding, Dop. D2L, entry CC(C)c1ccc(CCn2c3c(c4cc(Cl)ccc42)CN(C)CC3)cn1 [Compound 372] : 44%

The recorded Inhibition of ligand binding, Dop. D2L for Cc1ccc2c(c1)c1c(n2CCc2cccnc2)CCN(C)C1 [Compound 60] is 24%

The compound identified as Cc1ccc2c(c1)c1c(n2CC(=O)N2CCc3ccccc3C2)CCN(C)C1 [Compound 398] registered its Inhibition of ligand binding, Dop. D2L at 8%

Note to self: Inhibition of ligand binding, Dop. D2L recorded for CN1CCc2c(c3cc(Cl)ccc3n2CCN2CCCCC2)C1 [Compound 189] was 0%

Inhibition of ligand binding, Dop. D2L reading for Cc1ccc2c(c1)c1c(n2CC(=O)N2CCSCC2)CCN(C)C1 [Compound 399] : 0%
